- Tested on: NCI/ADR-RES ovarian
- test-method-notes: NCI tumour cell line growth inhibition, 48 h
Listed here are compounds together with their documented TGI.
measurement-type: TGI

INSERT INTO measurements (compound, observed_measurement) VALUES
  ('O=S1(=O)N=C(SCc2c[nH]c3ccccc23)N(c2ccccc2)c2ccncc21', '> 100 µM'),
  ('COc1cc(N)c(Cl)cc1C(=O)N[C@@H]1CCN(CCCOc2ccc(F)cc2)C[C@@H]1OC', '> 100 µM'),
  ('C/C(=N\Nc1nc2cc(F)ccc2s1)c1ccccn1', '0.12 µM'),
  ('COc1c(NC(C)=O)c2ccccc2c2ccccc12', '> 100 µM'),
  ('CCOP(=O)(OCC)C(c1ccccc1)N(C(=O)NC(F)(F)F)c1ccc(C)cc1 (stereo not given)', '> 100 µM');
